Form field: fold repression (one value per entry).
Target: T1, ECF25_1645
T1 chain: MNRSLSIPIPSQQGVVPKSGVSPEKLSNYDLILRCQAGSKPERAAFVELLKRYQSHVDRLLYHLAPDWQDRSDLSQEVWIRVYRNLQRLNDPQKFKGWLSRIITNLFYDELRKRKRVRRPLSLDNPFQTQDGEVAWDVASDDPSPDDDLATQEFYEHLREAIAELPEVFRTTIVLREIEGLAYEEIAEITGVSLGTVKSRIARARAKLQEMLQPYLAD
RECORDED ENDPOINT: fold repression

{"BINDER": "AS30_35 (protein) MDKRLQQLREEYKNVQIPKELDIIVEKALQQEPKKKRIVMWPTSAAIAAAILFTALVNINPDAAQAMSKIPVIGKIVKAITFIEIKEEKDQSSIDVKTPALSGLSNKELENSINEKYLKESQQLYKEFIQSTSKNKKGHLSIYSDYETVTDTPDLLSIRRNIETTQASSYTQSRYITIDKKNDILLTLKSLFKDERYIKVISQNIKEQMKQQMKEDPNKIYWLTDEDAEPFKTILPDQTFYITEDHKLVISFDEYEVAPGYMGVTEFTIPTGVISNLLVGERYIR", "RECORDED MEASUREMENT": 1.69}
{"BINDER": "AS33_375 (protein) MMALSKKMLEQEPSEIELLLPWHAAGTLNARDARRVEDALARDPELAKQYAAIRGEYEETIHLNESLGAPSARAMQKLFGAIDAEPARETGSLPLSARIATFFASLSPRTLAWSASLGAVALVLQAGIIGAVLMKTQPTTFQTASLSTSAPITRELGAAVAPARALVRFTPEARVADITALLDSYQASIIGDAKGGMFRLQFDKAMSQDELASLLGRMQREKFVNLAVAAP", "RECORDED MEASUREMENT": 5.35}
